# Procedure Details: Rough solubility of free base starting material, visually evaluated by solvent addition
# Format: physicochemical
# Recorded Conditions: acetonitrile, organic solvent or mixture, thermodynamic from solid, acetonitrile; read-out: Solubility
Experimental Endpoint: Solubility

For this molecule ( Cc1c(C#Cc2cnc3ccc(N4CCC(O)CC4)nn23)cccc1C(=O)Nc1cc(Cl)cc(C(F)(F)F)c1 [Free base crystalline form I] ), measured Solubility is 1000 to 5000 µg/mL
